System: HCT-116
test-details: Growth inhibition of human HCT116 cells at 10 uM after 48 hrs by SRB assay relative to control
Format: functional
condition-info: HCT-116, 48 h, read-out: GI
Binary classification by inhibition of growth at 10 µM, with 5% as an inclusive lower bound for MET; all other cases are NOT MET.

# bool: inhibition of growth at 10 µM of COc1ccc(Cc2nnc3sc(SCc4ccccc4)nn23)cc1 >= 5% NOT MET

Try this compound too: COc1ccc(Cc2nnc(SCC(=O)c3ccc(Cl)cc3)n2Cc2ccccc2)cc1 MET

Try this compound too: COc1ccc(Cc2nnc(SCC(=O)Nc3ccc(Cl)cc3)n2-c2ccccc2)cc1 NOT MET

Try this compound too: COc1ccc(Cc2nnc(SCC(=O)Nc3ccc(Cl)cc3)n2Cc2ccccc2)cc1 MET

Try this compound too: CCSc1nnc(Cc2ccc(OC)cc2)n1-c1ccc(C)cc1 NOT MET

Try this compound too: COc1ccc(Cc2nnc3sc(SCC(=O)c4ccc(Cl)cc4)nn23)cc1 NOT MET

---

Tested on: SR
test-details: Growth inhibition of human SR cells at 10 uM after 48 hrs by SRB assay relative to control
Assay type: functional
condition-info: read-out: GI
test-readout: inhibition of growth at 10 µM (%)
API: value field is a number in %; no unit string.

Answered cases to consult:
INSERT INTO results (smiles_code, test_readout, value) VALUES
  ('COc1ccc(Cc2nnc(SCC(=O)Nc3ccc(Cl)cc3)n2Cc2ccccc2)cc1', 'inhibition of growth at 10 µM', 25.7),
  ('COc1ccc(Cc2nnc(SCC(=O)c3ccc(Cl)cc3)n2Cc2ccccc2)cc1', 'inhibition of growth at 10 µM', 22.2),
  ('COc1ccc(Cc2nnc(SCC(=O)c3ccc(Cl)cc3)n2-c2ccc(C)cc2)cc1', 'inhibition of growth at 10 µM', 20),
  ('COc1ccc(Cc2nnc3sc(SC)nn23)cc1', 'inhibition of growth at 10 µM', 7.53);

Would you kindly look at the next entry?
Recorded inhibition of growth at 10 µM of COc1ccc(Cc2nnc(SCC(=O)c3ccc(Cl)cc3)n2-c2ccccc2)cc1 , please. 24.1

---

System: SNB-19
test-details: Growth inhibition of human SNB19 cells at 10 uM after 48 hrs by SRB assay relative to control
Assay type: functional
condition-info: SNB-19, 48 h, read-out: GI
inhibition of growth at 10 µM: recorded values

Answered cases to consult:
INSERT INTO results (smiles_code, value) VALUES
  ('COc1ccc(Cc2nnc3sc(SCc4ccccc4)nn23)cc1', '10.6%'),
  ('COc1ccc(Cc2nnc(SCC(=O)Nc3ccc(C)cc3)n2-c2ccc(C)cc2)cc1', '3.42%'),
  ('COc1ccc(Cc2nnc(SCC(=O)c3ccc(Cl)cc3)n2-c2ccccc2)cc1', '5%'),
  ('COc1ccc(Cc2nnc3sc(SCC(=O)Nc4ccc(C)cc4)nn23)cc1', '3.61%');

Would you kindly look at the next entry?
Recorded inhibition of growth at 10 µM of COc1ccc(Cc2nnc3sc(SCC(=O)Nc4ccc(Cl)cc4)nn23)cc1 , please. 10.4%

---

Test system: 786-0
test-details: Growth inhibition of human 786-0 cells at 10 uM after 48 hrs by SRB assay relative to control
Type: functional
condition-info: 786-0, 48 h, read-out: GI
test-readout: inhibition of growth at 10 µM (%)
API: value field is a number in %; no unit string.

Answered cases to consult:
INSERT INTO assay_data (smiles_code, study_system, test_readout, value) VALUES
  ('COc1ccc(Cc2nnc(SCC(=O)c3ccc(Cl)cc3)n2Cc2ccccc2)cc1', '786-0', 'inhibition of growth at 10 µM', 3.19),
  ('COc1ccc(Cc2nnc(SCC(=O)Nc3ccc(Cl)cc3)n2Cc2ccccc2)cc1', '786-0', 'inhibition of growth at 10 µM', 11.4),
  ('COc1ccc(Cc2nnc3sc(SCc4ccccc4)nn23)cc1', '786-0', 'inhibition of growth at 10 µM', 6.46);

Would you kindly look at the next entry?
Recorded inhibition of growth at 10 µM of COc1ccc(Cc2nnc(SCC(=O)c3ccc(Cl)cc3)n2-c2ccccc2)cc1 , please. 7.77

---

System: OVCAR-4
test-details: Growth inhibition of human OVCAR4 cells at 10 uM after 48 hrs by SRB assay relative to control
Assay type: functional
condition-info: OVCAR-4, 48 h, read-out: GI
Binary classification by inhibition of growth at 10 µM, with 9% as an inclusive lower bound for label 1; all other cases are label 0.

Example entries and their recorded answers appear below.
INSERT INTO assay_data (smiles_code, category_label) VALUES
  ('COc1ccc(Cc2nnc(SCC(=O)c3ccc(Cl)cc3)n2-c2ccc(C)cc2)cc1', 'label 1'),
  ('COc1ccc(Cc2nnc3sc(SCc4ccccc4)nn23)cc1', 'label 0'),
  ('COc1ccc(Cc2nnc(SCC(=O)c3ccc(Cl)cc3)n2-c2ccccc2)cc1', 'label 1'),
  ('COc1ccc(Cc2nnc(SCC(=O)Nc3ccc(Cl)cc3)n2Cc2ccccc2)cc1', 'label 1'),
  ('CCSc1nnc(Cc2ccc(OC)cc2)n1-c1ccccc1', 'label 0'),
  ('COc1ccc(Cc2nnc3sc(SCC(=O)c4ccc(Cl)cc4)nn23)cc1', 'label 0'),
  ('COc1ccc(Cc2nnc(SCC(=O)c3ccc(C)cc3)n2-c2ccccc2)cc1', 'label 0'),
  ('COc1ccc(Cc2nnc(SCC(=O)c3ccc(Cl)cc3)n2Cc2ccccc2)cc1', 'label 1');

# bool: inhibition of growth at 10 µM of COc1ccc(Cc2nnc3sc(SCC(=O)Nc4ccc(Cl)cc4)nn23)cc1 >= 9% label 0

Try this compound too: COc1ccc(Cc2nnc(SCC(=O)Nc3ccc(Cl)cc3)n2-c2ccccc2)cc1 label 0

---

Tested on: RPMI-8226
test-details: Growth inhibition of human RPMI8226 cells at 10 uM after 48 hrs by SRB assay relative to control
Type: functional
condition-info: RPMI-8226, 48 h, read-out: GI
Binary classification by inhibition of growth at 10 µM, with 9% as an inclusive lower bound for true; all other cases are false.

# bool: inhibition of growth at 10 µM of COc1ccc(Cc2nnc3sc(SCC(=O)c4ccc(Cl)cc4)nn23)cc1 >= 9% false

Try this compound too: COc1ccc(Cc2nnc3sc(SC)nn23)cc1 false

---

inhibition of growth at 10 µM: recorded values
Test system: HOP-62
test-details: Growth inhibition of human HOP62 cells at 10 uM after 48 hrs by SRB assay relative to control
Type: functional
condition-info: HOP-62, 48 h, read-out: GI
API: value field is a number in %; no unit string.

Recorded inhibition of growth at 10 µM of CCSc1nnc(Cc2ccc(OC)cc2)n1-c1ccc(C)cc1 , please. 6

Try this compound too: COc1ccc(Cc2nnc3sc(SCC(=O)Nc4ccc(Cl)cc4)nn23)cc1 4.5

Try this compound too: COc1ccc(Cc2nnc3sc(SCC(=O)Nc4ccc(C)cc4)nn23)cc1 2

---

System: SNB-19
test-details: Growth inhibition of human SNB19 cells at 10 uM after 48 hrs by SRB assay relative to control
Type: functional
condition-info: SNB-19, 48 h, read-out: GI
Binary classification by inhibition of growth at 10 µM, with 5% as an inclusive lower bound for criterion met; all other cases are criterion not met.

Example entries and their recorded answers appear below.
INSERT INTO measurements (smiles_code, category_label) VALUES
  ('CCSc1nnc(Cc2ccc(OC)cc2)n1-c1ccccc1', 'criterion met'),
  ('COc1ccc(Cc2nnc(SCC(=O)Nc3ccc(Cl)cc3)n2-c2ccccc2)cc1', 'criterion not met'),
  ('COc1ccc(Cc2nnc(SCC(=O)c3ccc(C)cc3)n2-c2ccccc2)cc1', 'criterion not met');

# bool: inhibition of growth at 10 µM of COc1ccc(Cc2nnc(SCC(=O)Nc3ccc(Cl)cc3)n2Cc2ccccc2)cc1 >= 5% criterion met

Try this compound too: COc1ccc(Cc2nnc(SCC(=O)c3ccc(Cl)cc3)n2Cc2ccccc2)cc1 criterion met

---

inhibition of growth at 10 µM: recorded values
Tested on: NCI-H23
test-details: Growth inhibition of human NCI-H23 cells at 10 uM after 48 hrs by SRB assay relative to control
Format: functional
condition-info: NCI-H23, 48 h, read-out: GI
API: value field is a number in %; no unit string.

INSERT INTO results (smiles_code, measurement_unit, value) VALUES
  ('CCSc1nnc(Cc2ccc(OC)cc2)n1-c1ccc(C)cc1', '%', 4.3),
  ('COc1ccc(Cc2nnc3sc(SCC(=O)Nc4ccc(Cl)cc4)nn23)cc1', '%', 9.4),
  ('COc1ccc(Cc2nnc(SCC(=O)c3ccc(Cl)cc3)n2-c2ccc(C)cc2)cc1', '%', 5.6);

Recorded inhibition of growth at 10 µM of COc1ccc(Cc2nnc3sc(SC)nn23)cc1 , please. 5.4

Try this molecule too: COc1ccc(Cc2nnc3sc(SCc4ccccc4)nn23)cc1 7.22
